From: patent US20130197070

# target.or.system: Axl receptor tyrosine kinase (cell surface) (Homo sapiens, UniProt P30530 P30530:26-894)
# Sequence (P30530 26-894, one chain of several): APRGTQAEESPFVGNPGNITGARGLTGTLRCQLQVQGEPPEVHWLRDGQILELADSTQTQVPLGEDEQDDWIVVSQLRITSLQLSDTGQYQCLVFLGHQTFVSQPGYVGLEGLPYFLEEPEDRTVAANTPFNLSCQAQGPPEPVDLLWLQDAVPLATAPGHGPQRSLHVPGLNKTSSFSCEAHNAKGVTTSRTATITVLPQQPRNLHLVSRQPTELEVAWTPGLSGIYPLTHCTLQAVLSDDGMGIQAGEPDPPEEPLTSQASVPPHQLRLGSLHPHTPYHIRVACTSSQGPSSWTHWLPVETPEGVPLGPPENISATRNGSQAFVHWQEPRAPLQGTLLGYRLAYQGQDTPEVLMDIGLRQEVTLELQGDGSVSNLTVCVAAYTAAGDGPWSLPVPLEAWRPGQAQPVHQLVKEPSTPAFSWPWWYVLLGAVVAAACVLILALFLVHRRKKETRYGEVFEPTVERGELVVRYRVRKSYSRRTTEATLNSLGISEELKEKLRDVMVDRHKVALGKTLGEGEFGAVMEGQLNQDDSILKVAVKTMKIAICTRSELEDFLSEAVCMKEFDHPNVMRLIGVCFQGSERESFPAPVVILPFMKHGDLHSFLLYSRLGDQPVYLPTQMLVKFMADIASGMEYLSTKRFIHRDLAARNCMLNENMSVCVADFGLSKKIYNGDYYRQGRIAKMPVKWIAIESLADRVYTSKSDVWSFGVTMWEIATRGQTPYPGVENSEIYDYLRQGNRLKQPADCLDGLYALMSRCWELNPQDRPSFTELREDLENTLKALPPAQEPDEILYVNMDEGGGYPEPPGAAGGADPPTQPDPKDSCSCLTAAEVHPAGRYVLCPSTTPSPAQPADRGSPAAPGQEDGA
# protocol.details: binding to Axl-positive U87MG cells; reduced by Axl shRNA; binds Axl-transfected SKBr3 but not parental SKBr3
# cond: label: 5'-32P
pKd: −log10 of the molar value.
recorded.metric: pKd

[[record]]
binder = "AUGAUCAAUCGCCUCAAUUCGACAGGAGGCUCAC (ssRNA, 2'-F on all pyrimidines) [GL21 52-85 (GL21.T)]"
recorded_metric = "pKd"
test_value = 7.05

